Assay: Oral bioavailability in Sprague-Dawley rat at 2 mg/kg by LC-MS/MS method
Assay type: ADME, organism-based
Details: in vivo

# input smiles, unit string, bioavailability
rows = [
    ("Cn1c(-c2cccnc2)nc2ccc(F)cc21", "%", 37),
    ("Fc1cc2nc(-c3cccnc3)n(C3CC3)c2cc1F", "%", 92),
    ("Fc1ccc2nc(-c3cccnc3)n(C3CC3)c2c1", "%", 77),
    ("CC(C)(O)c1cncc(-c2nc3cc(F)c(F)cc3n2C2CC2)c1", "%", 94),
    ("CC(C)(O)c1cncc(-c2nc3ccc(F)cc3n2C2CC2)c1", "%", 76),
    ("CC1(n2c(-c3cccnc3)nc3ccc(F)cc32)CC1", "%", 32),
    ("Fc1cncc(-c2nc3cc(F)c(F)cc3n2C2CC2)c1", "%", 86),
]

---

Species: Homo sapiens
Test: Selectivity index, ratio of IC50 for human CYP11B1 to IC50 for human CYP11B2
property measured: Ratio IC50

# input smiles, result
records = [
    ("FC(F)(F)c1ccc2nc(-c3cccnc3)n(C3CC3)c2c1", 7),
    ("Clc1ccc2nc(-c3cccnc3)n(C3CC3)c2c1", 215),
    ("N#Cc1cncc(-c2nc3cc(F)c(F)cc3n2C2CC2)c1", 70),
    ("Cn1c(-c2cccnc2)nc2ccc(F)cc21", 56),
    ("Fc1ccc2nc(-c3cccnc3)n(C3CC3)c2c1", 100),
    ("Fc1cncc(-c2nc3cc(F)c(Cl)cc3n2C2CC2)c1", 296),
    ("COc1c(C)cncc1-c1nc2cc(F)c(F)cc2n1C1CC1", 709),
    ("Fc1ccc2c(c1)nc(-c1cccnc1)n2C1CC1", 142),
    ("Fc1cc2nc(-c3cccnc3)n(C3CC3)c2cc1F", 176),
    ("N#Cc1ccc2nc(-c3cccnc3)n(C3CC3)c2c1", 309),
    ("Fc1cc2nc(-c3cnccc3C(F)(F)F)n(C3CC3)c2cc1F", 98),
    ("Fc1ccc2nc(-c3cccnc3)[nH]c2c1", "< 1"),
]

---

Molecular target: Cytochrome P450 3A4 (Homo sapiens, UniProt P08684)
Sequence (P08684 whole entry): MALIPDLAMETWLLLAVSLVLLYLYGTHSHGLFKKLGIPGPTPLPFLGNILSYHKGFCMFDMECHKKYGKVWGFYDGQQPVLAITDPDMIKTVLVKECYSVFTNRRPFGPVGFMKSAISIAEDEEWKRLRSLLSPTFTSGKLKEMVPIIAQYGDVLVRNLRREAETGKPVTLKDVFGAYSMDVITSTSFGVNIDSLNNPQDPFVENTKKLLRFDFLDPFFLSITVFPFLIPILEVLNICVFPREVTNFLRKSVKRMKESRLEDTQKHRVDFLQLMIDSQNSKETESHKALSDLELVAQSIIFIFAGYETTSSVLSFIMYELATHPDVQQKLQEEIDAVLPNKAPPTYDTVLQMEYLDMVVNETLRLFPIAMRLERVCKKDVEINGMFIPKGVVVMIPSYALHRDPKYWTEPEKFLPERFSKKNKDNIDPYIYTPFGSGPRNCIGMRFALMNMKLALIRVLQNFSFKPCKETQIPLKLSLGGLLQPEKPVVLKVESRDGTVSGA

# input smiles, measured target, IC50
measured = [
    ("CC(C)(O)c1cncc(-c2nc3ccc(F)cc3n2C2CC2)c1", "Cytochrome P450 3A4 (Homo sapiens, UniProt P08684)", "> 50 µM"),
]

---

Target: UniProt:P15538
Sequence (P15538 whole entry): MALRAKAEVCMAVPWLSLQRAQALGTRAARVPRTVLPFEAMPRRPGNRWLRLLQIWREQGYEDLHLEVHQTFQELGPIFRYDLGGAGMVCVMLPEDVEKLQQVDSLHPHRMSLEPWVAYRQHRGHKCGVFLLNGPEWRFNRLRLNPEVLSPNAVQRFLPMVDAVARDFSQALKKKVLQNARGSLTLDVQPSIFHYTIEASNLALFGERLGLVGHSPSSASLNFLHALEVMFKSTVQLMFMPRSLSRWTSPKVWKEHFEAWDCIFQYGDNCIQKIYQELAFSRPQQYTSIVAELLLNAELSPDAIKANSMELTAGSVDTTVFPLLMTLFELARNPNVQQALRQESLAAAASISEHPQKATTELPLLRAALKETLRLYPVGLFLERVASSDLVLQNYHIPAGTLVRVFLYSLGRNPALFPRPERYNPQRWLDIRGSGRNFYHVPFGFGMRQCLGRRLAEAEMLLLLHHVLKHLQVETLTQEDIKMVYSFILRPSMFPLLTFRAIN
Assay: Inhibition of human CYP11B1 expressed in V79 cells incubated for 1 hr before 11-deoxycortisol substrate addition by HTRF-based assay
property measured: IC50 (nM)

# input smiles, limit operator, readout number
records = [
    ("Fc1ccc2nc(-c3cccnc3)n(CC(F)(F)F)c2c1", ">", 8330),
    ("FC(F)(F)c1ccc2nc(-c3cccnc3)n(C3CC3)c2c1", "=", 1830),
    ("Fc1cc2nc(-c3cccnc3)n(C3CC3)c2cc1Cl", "=", 334),
    ("CC1(n2c(-c3cccnc3)nc3ccc(F)cc32)CC1", "=", 2860),
    ("N#Cc1cc2c(cc1F)nc(-c1cncc(F)c1)n2C1CC1", "=", 225),
    ("COc1cncc(-c2nc3cc(F)c(F)cc3n2C2CC2)c1", "=", 250),
    ("c1cncc(-c2nc3ccccc3n2C2CC2)c1", ">", 8330),
    ("Fc1ccc2nc(-c3cccnc3)n(C3CC3)c2c1", "=", 401),
    ("Clc1ccc2nc(-c3cccnc3)n(C3CC3)c2c1", "=", 477),
    ("Fc1ccc2nc(-c3cccnc3)[nH]c2c1", "=", 1990),
    ("CCn1c(-c2cccnc2)nc2ccc(F)cc21", "=", 2100),
    ("COc1c(C)cncc1-c1nc2cc(F)c(F)cc2n1C1CC1", "=", 435),
]

Hello, the source for this data is ChEMBL document CHEMBL3580617, in case you need it.
